- Test system: S. aureus
- test-description: MIC against standard strains (agar dilution)
- Format: cell-based
- test-parameters: Staphylococcus aureus, Mueller-Hinton agar, 10^7 cfu/mℓ, 20 hours at 37°C
Each entry below lists one item and its recorded MIC value.
The reply should be a number in µg/mL, with the unit left off.

Nc1cc(SCSC2=C(C(=O)O)N3C(=O)C(NC(=O)/C(=N\O)c4csc(N)n4)C3SC2)nc(N)n1 (stereo not shown) [compound 6]: 0.13

Incoming: Annotate the molecule Nc1cc(SCSC2=C(C(=O)O)N3C(=O)C(NC(=O)/C(=N\O)c4nc(N)sc4Cl)C3SC2)nc(N)n1 (stereo not shown) [compound 7] with its measured MIC.
Outgoing: 0.13

Incoming: For the molecule CO/N=C(\C(=O)NC1C(=O)N2C(C(=O)O)=C(SCSc3ncccn3)CSC12)c1csc(N)n1 (stereo not shown) [compound 1] , report MIC.
Outgoing: 0.5

Incoming: Please indicate MIC recorded for CO/N=C(\C(=O)NC1C(=O)N2C(C(=O)O)=C(SCSc3nccc(N)n3)CSC12)c1csc(N)n1 (stereo not shown) [Compound No. 2]
Outgoing: 0.5

###

- test-description: Pharmacokinetic experiment (blood concentration by HPLC)
- Type: in vivo, mice
- test-parameters: male, mouse, blood, intravenous, 20 mg/kg, Injection, time 120 min, read-out: blood concentration, mouse-2
value-type: concentration at 120 min (ng/mL)
Just the number please, in ng/mL, no unit attached.

Incoming: Answer with the recorded concentration at 120 min for the compound listed here: CO/N=C(\C(=O)NC1C(=O)N2C(C(=O)O)=C(Sc3cc(N)nc(N)n3)CSC12)c1csc(N)n1 (stereo not shown)
Outgoing: 1300

###

- test-description: Pharmacokinetic experiment (blood concentration by HPLC)
- Assay type: in vivo, mice
- test-parameters: male, mouse, blood, po, 20 mg/kg, Oral administration, time 40 min, read-out: blood concentration, mouse-2
value-type: concentration at 40 min (ng/mL)
Provide only the numeric value, understood in ng/mL.

Incoming: State, in one line, measured concentration at 40 min of CO/N=C(\C(=O)NC1C(=O)N2C(C(=O)O)=C(Sc3cc(N)nc(N)n3)CSC12)c1csc(N)n1 (stereo not shown) [Compound No. 25]
Outgoing: 590

###

- test-description: Pharmacokinetic experiment (blood concentration by HPLC)
- Type: in vivo, mice
- test-parameters: male, mouse, blood, po, 20 mg/kg, Oral administration, time 5 min, read-out: blood concentration, mouse-2
value-type: concentration at 5 min (ng/mL)
Quick reminder: number only, in ng/mL, skip the unit.

Incoming: Name the recorded concentration at 5 min of the item CO/N=C(\C(=O)NC1C(=O)N2C(C(=O)O)=C(Sc3cc(N)nc(N)n3)CSC12)c1csc(N)n1 (stereo not shown) in your answer.
Outgoing: 130

###

- test-description: Pharmacokinetic experiment (blood concentration by HPLC)
- Assay type: in vivo, mice
- test-parameters: male, mouse, blood, intravenous, 20 mg/kg, Injection, time 120 min, read-out: average conc.
value-type: concentration at 120 min (ng/mL)
Enter your answer as a number in ng/mL; do not include the unit.

Incoming: Give the reported concentration at 120 min for this compound. CO/N=C(\C(=O)NC1C(=O)N2C(C(=O)O)=C(Sc3cc(N)nc(N)n3)CSC12)c1csc(N)n1 (stereo not shown) [Compound No. 25]
Outgoing: 1800

###

- test-description: Pharmacokinetic experiment (blood concentration by HPLC)
- Format: in vivo, mice
- test-parameters: male, mouse, blood, po, 20 mg/kg, Oral administration, time 60 min, read-out: blood concentration, mouse-1
- Description: Test example 2: Pharmacokinetic experiment Male mice, each of which has a body weight of […] were used in the present pharmacokinetic experiment. Test compounds were formulated into 1% of solution and then, the solution was administered by oral route and by injection with a dose of 20mg/kg, respectively. […] Concentrations of test compounds in blood were measured by HPLC quantitative analysis and based on the results, pharmacokinetic parameters were calculated.
value-type: concentration at 60 min (ng/mL)
Report only the number, with the unit ng/mL understood.

Incoming: Return the recorded concentration at 60 min value; entry: CO/N=C(\C(=O)NC1C(=O)N2C(C(=O)O)=C(Sc3cc(N)nc(N)n3)CSC12)c1csc(N)n1 (stereo not shown)
Outgoing: 160

###

- test-description: Pharmacokinetic experiment (blood concentration by HPLC)
- Format: in vivo, mice
- test-parameters: male, mouse, blood, intravenous, 20 mg/kg, Injection, time 180 min, read-out: blood concentration, mouse-1
value-type: concentration at 180 min (ng/mL)
Form entry: value (ng/mL) — number only.

Incoming: Kindly indicate its recorded concentration at 180 min. Item: CO/N=C(\C(=O)NC1C(=O)N2C(C(=O)O)=C(Sc3cc(N)nc(N)n3)CSC12)c1csc(N)n1 (stereo not shown)
Outgoing: 1100

###

- Tested on: Moraxella catarrhalis C2431
- test-description: MIC against standard strains (agar dilution)
- Type: cell-based
- test-parameters: Moraxella catarrhalis C2431; Mueller-Hinton agar, 20 hours at 37°C; read-out: MIC
MIC by entry:

Solved entries (count: 3):
Nc1cc(SC2=C(C(=O)O)N3C(=O)C(NC(=O)/C(=N\O)c4csc(N)n4)C3SC2)nc(N)n1 (stereo not shown): 0.016 µg/mL
CC(C)(O/N=C(\C(=O)N[C@@H]1C(=O)N2C(C(=O)[O-])=C(C[n+]3ccccc3)CS[C@H]12)c1csc(N)n1)C(=O)O [Ceftazidime, reference compound]: 0.031 µg/mL
CO/N=C(\C(=O)NC1C(=O)N2C(C(=O)O)=C(Sc3cc(N)nc(N)n3)CSC12)c1csc(N)n1 (stereo not shown): ≤ 0.008 µg/mL

Now consider a different molecule.
Incoming: Indicate the recorded MIC value for this molecule: CCO/N=C(\C(=O)NC1C(=O)N2C(C(=O)O)=C(Sc3cc(N)nc(N)n3)CSC12)c1csc(N)n1 (stereo not shown)
Outgoing: ≤ 0.008 µg/mL

###

- test-description: Pharmacokinetic experiment (blood concentration by HPLC)
- Format: in vivo, mice
- test-parameters: male, mouse, blood, intravenous, 20 mg/kg, Injection, time 5 min, read-out: average conc.
value-type: concentration at 5 min
Provide the measurement as a number trailed by its unit.

Incoming: For CO/N=C(\C(=O)NC1C(=O)N2C(C(=O)O)=C(Sc3cc(N)nc(N)n3)CSC12)c1csc(N)n1 (stereo not shown) , write its concentration at 5 min.
Outgoing: 41200 ng/mL

###

Attribute: MIC
- System: Acinetobacter calcoaceticu 15473
- test-description: MIC against standard strains (agar dilution)
- Type: cell-based
- test-parameters: Acinetobacter calcoaceticu 15473; Mueller-Hinton agar, 20 hours at 37°C; read-out: MIC
Unit µg/mL implied. Number only.

Observe how each entry below is paired with its result.
CC(C)(O/N=C(\C(=O)N[C@@H]1C(=O)N2C(C(=O)[O-])=C(C[n+]3ccccc3)CS[C@H]12)c1csc(N)n1)C(=O)O [Ceftazidime, reference compound]: 2
CCO/N=C(\C(=O)NC1C(=O)N2C(C(=O)O)=C(Sc3cc(N)nc(N)n3)CSC12)c1csc(N)n1 (stereo not shown) [compound 27]: 32
Nc1cc(SC2=C(C(=O)O)N3C(=O)C(NC(=O)/C(=N\O)c4csc(N)n4)C3SC2)nc(N)n1 (stereo not shown) [compound 26]: 32

Consider the record given below.
Incoming: Under Acinetobacter calcoaceticu 15473, report MIC for CO/N=C(\C(=O)NC1C(=O)N2C(C(=O)O)=C(Sc3cc(N)nc(N)n3)CSC12)c1csc(N)n1 (stereo not shown) [Compound No. 25]
Outgoing: 64

###

- System: Pseudomonas aeruginosa 6065Y
- test-description: MIC against standard strains (agar dilution)
- Assay type: cell-based
- test-parameters: Pseudomonas aeruginosa 6065Y; Mueller-Hinton agar, 20 hours at 37°C; read-out: MIC
value-type: MIC (µg/mL)
Give your result in µg/mL as a bare value.

CO/N=C(\C(=O)NC1C(=O)N2C(C(=O)O)=C(Sc3cc(N)nc(N)n3)CSC12)c1csc(N)n1 (stereo not shown) [Compound No. 25]: 64
CC(C)(O/N=C(\C(=O)N[C@@H]1C(=O)N2C(C(=O)[O-])=C(C[n+]3ccccc3)CS[C@H]12)c1csc(N)n1)C(=O)O [Ceftazidime, reference compound]: 32

Now turn to the next compound.
Incoming: Query MIC for CCO/N=C(\C(=O)NC1C(=O)N2C(C(=O)O)=C(Sc3cc(N)nc(N)n3)CSC12)c1csc(N)n1 (stereo not shown) [compound 27]
Outgoing: 64

###

- test-description: Pharmacokinetic experiment (blood concentration by HPLC)
- Format: in vivo, mice
- test-parameters: male, mouse, blood, intravenous, 20 mg/kg, Injection, time 240 min, read-out: blood concentration, mouse-2
value-type: concentration at 240 min (ng/mL)
API: value field is a number in ng/mL; no unit string.

Incoming: Assign concentration at 240 min to the following record: CO/N=C(\C(=O)NC1C(=O)N2C(C(=O)O)=C(Sc3cc(N)nc(N)n3)CSC12)c1csc(N)n1 (stereo not shown) [Compound No. 25]
Outgoing: 300
